Tested on: Blumeria graminis f. sp. tritici
Test: Test I: wheat powdery mildew, preventive spray on wheat seedlings, visual disease rating
Conditions: wheat powdery mildew; 100 = 100% disease control, 0 = no disease control relative to the controls
Property Name: Test I rating (disease control) (%)
Numbers only, in %.

{"Compound": "Cc1nn(C)c(Nc2ccc(F)cc2Cl)c1-c1c(F)cc(C#N)cc1F [compound 31]", "Target": "Blumeria graminis f. sp. tritici", "Readout Unit": "%", "Test I rating (disease control)": 100}
{"Compound": "Cc1nn(C)c(Nc2ccc(Cl)cc2Cl)c1-c1ccc(F)cc1Cl [compound 88]", "Target": "Blumeria graminis f. sp. tritici", "Readout Unit": "%", "Test I rating (disease control)": 100}

Okay, here is my list. What is Test I rating (disease control) for each of these?
1. Cc1nn(C)c(Nc2c(F)cc(C#N)cc2F)c1-c1c(F)cccc1Cl [compound 57]
2. Cc1nn(C)c(Nc2ccc(Br)cc2Cl)c1-c1ccc(F)cc1Cl [compound 172]
3. Cc1nn(C)c(Nc2ccc(C#N)cc2Cl)c1-c1ccc(F)cc1Cl [compound 44]
4. COc1ccc(Nc2c(-c3ccc(F)cc3F)c(C)nn2C)c(Cl)c1 [compound 66]
5. Cc1nn(C)c(Nc2ccc(Cl)cc2Cl)c1-c1c(Cl)cccc1Cl [compound 105]
6. COc1cc(F)c(-c2c(C)nn(C)c2Oc2c(F)cc(C#N)cc2F)c(F)c1 [compound 38]

Reply:
1. 99
2. 100
3. 94
4. 100
5. 99
6. 97

* * *

Tested on: Alternaria solani
Experiment: Test B: tomato early blight, preventive spray on tomato seedlings, visual disease rating
Conditions: tomato early blight; 100 = 100% disease control, 0 = no disease control relative to the controls
Property Name: Test B rating (disease control) (%)
One number for each entry, in %.

{"Compound": "Cc1nn(C)c(Nc2c(F)cc(F)cc2Cl)c1-c1ccc(Cl)cc1Cl [compound 156]", "Test B rating (disease control) / %": 99}

Okay, here is my list. What is Test B rating (disease control) for each of these?
1. Cc1nn(C)c(Nc2c(F)cc(F)cc2F)c1-c1c(F)cc(C#N)cc1F [compound 35]
2. COc1cc(F)c(-c2c(C)nn(C)c2Oc2ccc(Cl)cc2Cl)c(F)c1 [compound 10]
3. Cc1nn(C)c(Nc2ccc(F)cc2Cl)c1-c1ccc(F)cc1Br [compound 96]

Reply:
[100, 0, 95]

* * *

System: Puccinia recondita f. sp. tritici
Assay: Test H: wheat leaf rust, preventive spray on wheat seedlings, visual disease rating
Conditions: wheat leaf rust, sprayed the day before inoculation; 100 = 100% disease control, 0 = no disease control
Please go through the items and note down their Test H rating (disease control).

{"Compound": "Cc1nn(C)c(Nc2c(Cl)cc(Br)cc2Cl)c1-c1ccc(F)cc1F", "Reported Value": "97%"}

Okay, here is my list. What is Test H rating (disease control) for each of these?
1. Cc1nn(C)c(Nc2ccc(F)cc2Cl)c1-c1ccc(F)cc1F
2. Cc1nn(C)c(Nc2c(Cl)cc(Br)cc2Cl)c1-c1ccc(F)cc1Cl
3. Cc1nn(C)c(Oc2ccc(C#N)cc2F)c1-c1c(F)cccc1Cl

Reply:
["99%", "100%", "100%"]

Briefly, Test H rating (disease control) measured for `Cc1nn(C)c(Nc2ccc(Cl)cc2Cl)c1-c1c(F)cccc1F` : 93%

* * *

Test system: Botrytis cinerea
Assay: Test A: tomato Botrytis, preventive spray on tomato seedlings, visual disease rating
Details: tomato Botrytis; 100 = 100% disease control, 0 = no disease control relative to the controls
Property Name: Test A rating (disease control) (%)
Numbers only, in %.

{"Compound": "Cc1nn(C)c(Nc2ccc(F)cc2F)c1-c1ccc(C#N)cc1Cl", "Test A rating (disease control) / %": 100}
{"Compound": "Cc1nn(C)c(Nc2ccc(Cl)cc2Cl)c1-c1c(F)cccc1Cl", "Test A rating (disease control) / %": 99}
{"Compound": "COc1cc(F)c(Nc2c(-c3c(F)cc(OC)cc3F)c(C)nn2C)c(F)c1", "Test A rating (disease control) / %": 100}
{"Compound": "Cc1nn(C)c(Nc2c(F)cc(F)cc2F)c1-c1ccccc1Br", "Test A rating (disease control) / %": 99}

Now consider a different molecule.
Briefly, Test A rating (disease control) measured for `COc1ccc(Nc2c(-c3ccc(F)cc3F)c(C)nn2C)c(F)c1` : 99

* * *

Test system: Puccinia recondita f. sp. tritici
Assay: Test H: wheat leaf rust, preventive spray on wheat seedlings, visual disease rating
Settings: wheat leaf rust, sprayed the day before inoculation; 100 = 100% disease control, 0 = no disease control
Please go through the items and note down their Test H rating (disease control).
Numbers only, in %.

Example entries and their recorded answers appear below.
{"Compound": "Cc1nn(C)c(Nc2ccc(F)cc2Cl)c1-c1c(Cl)cccc1Cl", "Test H rating (disease control) / %": 97}
{"Compound": "COc1cc(F)c(Nc2c(-c3ccc(Cl)cc3Cl)c(C)nn2C)c(F)c1", "Test H rating (disease control) / %": 99}

Okay, here is my list. What is Test H rating (disease control) for each of these?
1. Cc1nn(C)c(Nc2c(F)cc(C#N)cc2F)c1-c1c(F)cccc1F
2. Cc1nn(C)c(Nc2c(F)cccc2F)c1-c1c(F)cccc1F
3. Cc1nn(C)c(Oc2ccc(C#N)cc2Cl)c1-c1c(F)cc(F)cc1F
4. Cc1nn(C)c(Nc2c(F)cc(C#N)cc2F)c1-c1ccc(F)cc1F

Reply:
1: 98; 2: 99; 3: 99; 4: 100

Observed Test H rating (disease control) on Puccinia recondita f. sp. tritici, entry `COc1ccc(-c2c(C)nn(C)c2Oc2ccc(C#N)cc2F)c(Cl)c1` , equals 99

* * *

System: Phytophthora infestans
Assay: whole plant or invertebrate
Assay type: in vivo
Conditions: tomato late blight, preventive spray; 100 = 100% disease control; rating without asterisk
Property Name: Test C rating (% disease control)

Example entries and their recorded answers appear below.
{"Compound": "CCOc1cc(F)c(-c2c(C)nn(C)c2Nc2c(F)cc(F)cc2Cl)c(F)c1", "Test C rating (% disease control)": "0%"}
{"Compound": "Cc1nn(C)c(Nc2c(F)cc(Cl)cc2Br)c1-c1ccc(F)cc1Cl", "Test C rating (% disease control)": "0%"}
{"Compound": "Cc1nn(C)c(Nc2c(F)cc(Cl)cc2I)c1-c1ccc(F)cc1F", "Test C rating (% disease control)": "9%"}

Okay, here is my list. What is Test C rating (% disease control) for each of these?
1. CCOc1ccc(-c2c(C)nn(C)c2Nc2c(F)cc(Cl)cc2Cl)c(F)c1
2. CCOc1ccc(-c2c(C)nn(C)c2Nc2c(Cl)cc(F)cc2Cl)c(F)c1
3. CCOc1ccc(-c2c(C)nn(C)c2Nc2c(F)cc(F)cc2Cl)c(F)c1

Reply:
1. 0%
2. 0%
3. 0%

* * *

Please go through the items and note down their Test B rating (disease control).
System: Alternaria solani
Assay: Test B: tomato early blight, preventive spray on tomato seedlings, visual disease rating
Conditions: tomato early blight; 100 = 100% disease control, 0 = no disease control relative to the controls
Numbers only, in %.

{"Compound": "COc1ccc(-c2c(C)nn(C)c2Oc2ccc(C#N)cc2F)c(Cl)c1", "Test B rating (disease control) / %": 99}
{"Compound": "COc1cc(Cl)c(Nc2c(-c3ccc(F)cc3Br)c(C)nn2C)c(Cl)c1", "Test B rating (disease control) / %": 0}

Now consider a different compound.
Briefly, Test B rating (disease control) measured for `COc1cc(F)c(Nc2c(-c3c(F)cc(F)cc3F)c(C)nn2C)c(F)c1` : 82

* * *

Please go through the items and note down their Test E rating (% disease control).
Tested on: Septoria nodorum
Assay: Test E: Septoria glume blotch, preventive spray on wheat seedlings, visual disease rating
Conditions: Septoria glume blotch on wheat, preventive spray; 100 = 100% disease control; rating without asterisk
Give bare numbers, in %.

Example entries and their recorded answers appear below.
{"Compound": "Cc1nn(C)c(Nc2c(F)cc(F)cc2Cl)c1-c1ccc(Cl)cc1F", "Reported Value": 0}
{"Compound": "CCOc1ccc(-c2c(C)nn(C)c2Nc2ccc(F)cc2F)c(F)c1", "Reported Value": 0}
{"Compound": "Cc1nn(C)c(Nc2c(F)cc(Cl)cc2F)c1-c1ccc(Cl)cc1F", "Reported Value": 0}
{"Compound": "Cc1nn(C)c(C(O)c2ccc(C#N)cc2F)c1-c1ccc(F)cc1Cl (racemic)", "Reported Value": 0}
{"Compound": "COc1ccc(-c2c(C)nn(C)c2C(O)c2c(F)cc(Cl)cc2F)c(Cl)c1 (racemic)", "Reported Value": 89}
{"Compound": "Cc1nn(C)c(Nc2c(F)cc(I)cc2F)c1-c1ccc(F)cc1Cl", "Reported Value": 86}
{"Compound": "Cc1nn(C)c(Nc2c(F)cc(F)cc2I)c1-c1ccc(F)cc1Cl", "Reported Value": 100}
{"Compound": "Cc1nn(C)c(Nc2c(F)cc(F)cc2Br)c1-c1ccc(F)cc1Br", "Reported Value": 99}

Okay, here is my list. What is Test E rating (% disease control) for each of these?
1. Cc1nn(C)c(Nc2c(Cl)cc(Cl)cc2I)c1-c1ccc(F)cc1F
2. CCOc1cc(F)c(-c2c(C)nn(C)c2Nc2c(Cl)cc(F)cc2Cl)c(F)c1
3. Cc1nn(C)c(Nc2ccc(F)cc2I)c1-c1ccc(F)cc1Cl
4. Cc1nn(C)c(Nc2c(F)cc(I)cc2F)c1-c1ccc(F)cc1Br

Reply:
0
0
99
86
